pKi: −log10 of the molar value.
Target or system DNA-PK (Homo sapiens, UniProt P78527); metric pKi; compiled from varied reports.

Below, each entry is followed by its recorded pKi result.
molecule=CNC(=O)c1c(F)cnc2c([C@H](C)CNc3cc(-c4cnc(OC)c(N)c4)ncn3)cccc12 result="> 7.52"
molecule=CNC(=O)c1c(F)cnc2c([C@H](C)CNc3cc(-c4cnc(NC5CC5)nc4)ncn3)cccc12 result="> 7.52"
molecule=CNC(=O)c1ccnc2c([C@H](C)CNc3cc(-c4cnc(N5CCOCC5)nc4)ncn3)cccc12 result="> 7.52"
molecule=CNC(=O)c1ccnc2c([C@H](C)CNc3cc(-c4ccc(N5CCOCC5)nc4)ncn3)cccc12 result="> 7.52"
molecule=C1=C(c2cc(O[C@H]3CC[C@@H](Nc4ncccn4)CC3)c3nccnc3c2)CCOC1 result="> 7.00"

Simply: CNC(=O)c1ccnc2c([C@H](C)CNc3cc(-c4cnc(OC5CCC5)nc4)ncn3)ccc(F)c12 , DNA-PK (Homo sapiens, UniProt P78527), pKi = > 7.52

Result for COc1ccccc1[C@H](C)CNc1cc(-c2ccc(C)nc2)ncn1 , tested on DNA-PK (Homo sapiens, UniProt P78527), pKi: > 7.52

Note to self: pKi of COc1ccccc1CCNc1cc(-c2cnc3c(ccn3CC3CC3)c2)ncn1 with DNA-PK (Homo sapiens, UniProt P78527) was > 7.52
